tested on: CP217; assay: qHTS profiling for inhibitors of Plasmodium falciparum proliferation (AID 504749); also: nearly all actives have a fitted effect of over 60% in size; conditions: P. falciparum in erythrocytes, SYBR Green DNA, 72 h; series mostly up to 28.7 µM
Results filed as inconclusive are left out. Calls of active or inactive are those of the source. Calls follow the shape of the dose curve; as a rule, active = well fitted inhibition curve with a large enough effect; inconclusive = small, poorly fitted or top-dose-only effect; inactive = flat fitted curve, though single readings scatter.
Give one outcome, nothing more. List: class 1 = active, class 0 = inactive

Req: Query: recorded result category for CCCCCCCCCCCCCCCCCC(=O)OCC(O)CO (configuration not stated) in this test
Resp: class 0

Req: In this assay, the call recorded for c1ccc(-c2ccc(C(c3ccccc3)n3ccnc3)cc2)cc1 (configuration not stated) was what?
Resp: class 1

Req: Could you please tell me the result logged for COc1cccc2c1C(=O)c1c(O)c3c(c(O)c1C2=O)C[C@@](O)(C(C)=O)C[C@@H]3O[C@H]1C[C@H](N)[C@H](O)[C@H](C)O1 in this assay?
Resp: class 1

Req: What call does the record list for CC1(C)CCC(NC(=O)[C@@H](N)CCC(=O)O)CC1 ?
Resp: class 0

Req: So what was the verdict on CN1C2CCC1CC(OC(=O)c1c[nH]c3ccccc13)C2 (configuration not stated) in this test?
Resp: class 0

Req: # lookup: test call for O=S1(=O)c2cccc3cccc(c23)N1CCCN1CCN(c2ccc(F)cc2)CC1
Resp: class 0

Req: Record request — test call for C[C@]12CC[C@@H]3c4ccc(O)cc4CC[C@H]3[C@@H]1CC[C@@H]2O
Resp: class 0

Req: Tell me the assay call for CCOC(=O)c1cccc(N)c1 please.
Resp: class 0

Req: Lab log entry: CCCN1CCCC[C@H]1C(=O)Nc1c(C)cccc1C — outcome as called in the assay?
Resp: class 0

Req: // param item: C[N+]1(CCCCC[N+]2(C)CCCC2)CCCC1 ; yields the recorded call
Resp: class 0

Req: For CC(O)C(=O)O (configuration not stated) , what call appears in the results of this test?
Resp: class 0

Req: I'd appreciate the recorded outcome for COc1cc(C(=S)N2CCOCC2)cc(OC)c1OC from this test.
Resp: class 0
